Cited source: patent US12624044B2

# DC50 annotations
# Target System: SMARCA4 (Homo sapiens, UniProt P51532)
# Construct: SMARCA2 and SMARCA4 protein degradation in MV4-11 cells; endogenous in cells; host or cells: MV4-11
# Sequence (P51532 whole entry): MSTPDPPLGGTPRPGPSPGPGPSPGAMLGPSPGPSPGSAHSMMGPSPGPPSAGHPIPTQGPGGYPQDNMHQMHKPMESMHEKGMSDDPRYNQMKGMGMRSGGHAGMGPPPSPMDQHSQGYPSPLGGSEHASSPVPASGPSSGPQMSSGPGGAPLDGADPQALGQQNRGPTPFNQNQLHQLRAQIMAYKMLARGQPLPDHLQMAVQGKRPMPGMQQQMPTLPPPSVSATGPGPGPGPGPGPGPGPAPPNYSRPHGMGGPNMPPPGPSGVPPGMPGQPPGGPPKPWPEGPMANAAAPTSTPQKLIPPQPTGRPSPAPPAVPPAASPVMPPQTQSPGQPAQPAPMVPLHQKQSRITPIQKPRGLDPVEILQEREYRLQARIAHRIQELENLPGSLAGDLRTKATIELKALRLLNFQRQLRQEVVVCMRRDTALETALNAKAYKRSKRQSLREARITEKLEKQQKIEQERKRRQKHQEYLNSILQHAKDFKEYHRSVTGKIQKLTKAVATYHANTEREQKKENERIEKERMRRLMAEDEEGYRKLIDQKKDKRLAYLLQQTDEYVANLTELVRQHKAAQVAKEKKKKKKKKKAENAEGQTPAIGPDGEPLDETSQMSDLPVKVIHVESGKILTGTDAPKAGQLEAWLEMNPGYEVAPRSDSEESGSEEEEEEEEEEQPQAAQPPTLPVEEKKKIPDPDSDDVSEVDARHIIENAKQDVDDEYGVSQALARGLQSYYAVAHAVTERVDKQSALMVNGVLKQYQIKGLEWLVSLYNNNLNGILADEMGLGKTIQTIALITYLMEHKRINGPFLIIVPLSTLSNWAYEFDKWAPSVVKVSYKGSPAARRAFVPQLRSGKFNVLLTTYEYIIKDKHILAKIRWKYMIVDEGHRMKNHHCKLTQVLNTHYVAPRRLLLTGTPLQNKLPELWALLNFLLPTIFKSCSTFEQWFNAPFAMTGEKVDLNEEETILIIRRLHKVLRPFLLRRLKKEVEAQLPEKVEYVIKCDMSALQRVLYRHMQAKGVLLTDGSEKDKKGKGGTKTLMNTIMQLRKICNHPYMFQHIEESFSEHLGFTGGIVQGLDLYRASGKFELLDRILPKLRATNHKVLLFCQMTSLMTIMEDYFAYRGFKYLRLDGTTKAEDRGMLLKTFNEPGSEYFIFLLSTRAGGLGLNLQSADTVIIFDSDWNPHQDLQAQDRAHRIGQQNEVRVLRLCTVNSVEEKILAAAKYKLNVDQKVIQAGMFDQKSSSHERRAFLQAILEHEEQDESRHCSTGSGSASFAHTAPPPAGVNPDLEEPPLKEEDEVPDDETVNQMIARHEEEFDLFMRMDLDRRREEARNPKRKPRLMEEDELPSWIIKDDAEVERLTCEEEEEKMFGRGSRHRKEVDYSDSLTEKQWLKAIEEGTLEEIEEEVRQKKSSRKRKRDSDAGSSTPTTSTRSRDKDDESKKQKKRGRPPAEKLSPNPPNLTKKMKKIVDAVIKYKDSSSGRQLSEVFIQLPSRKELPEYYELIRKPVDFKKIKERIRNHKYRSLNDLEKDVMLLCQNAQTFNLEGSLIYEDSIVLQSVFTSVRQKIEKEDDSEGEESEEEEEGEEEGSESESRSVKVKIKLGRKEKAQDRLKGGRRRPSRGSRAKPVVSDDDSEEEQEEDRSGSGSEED
# Method Summary: SMARCA4 Western blot MV4-11 degradation
# Format: cell-based
# Condition Summary: MV4-11 cells, 24 h, read-out: SMARCA4 WB MV411 degradation 24 h: Average external-Abs DC50

Record excerpt, results attached:
• CN(CCCCCc1cnc(N2C3CCC2CN(c2cc(-c4ccccc4O)nnc2N)C3)nc1)Cc1ccc2c(c1)n(C)c(=O)n2C1CCC(=O)NC1=O (stereo not shown) [I-283] = < 100 nM
• Cn1c(=O)n(C2CCC(=O)NC2=O)c2cccc(C3CCC(N4CCC(n5cc(-c6cc(-c7ccccc7O)nnc6N)cn5)CC4)CC3)c21 (stereo not shown) [I-321] = < 100 nM
• Cc1ncsc1-c1ccc(CNC(=O)[C@@H]2C[C@@H](O)CN2C(=O)[C@@H](NC(=O)CC2CCC(N3CCC(c4cnc(N5C6CCC5CN(c5cc(-c7ccccc7O)nnc5N)C6)nc4)CC3)CC2)C(C)(C)C)cc1 (stereo partly shown) [I-511] = < 100 nM
• Cc1ncsc1-c1ccc(CNC(=O)[C@@H]2C[C@@H](O)CN2C(=O)[C@@H](NC(=O)[C@H]2CC[C@H](CN3CCC(c4cnc(N5C6CCC5CN(c5cc(-c7ccccc7O)nnc5N)C6)nc4)CC3)CC2)C(C)(C)C)cc1 [I-375] = 501 to 1000 nM
• Cc1ncsc1-c1ccc(CNC(=O)[C@@H]2C[C@@H](O)CN2C(=O)[C@@H](NC(=O)[C@H]2CC3(C2)C[C@H](N2CCC(c4cnc(N5C6CCC5CN(c5cc(-c7ccccc7O)nnc5N)C6)nc4)CC2)C3)C(C)(C)C)cc1 (stereo partly shown) [I-424] = > 1000 nM

Query :: Please list DC50 recorded for the molecule Cc1ncsc1-c1ccc([C@H](C)NC(=O)[C@@H]2C[C@@H](O)CN2C(=O)[C@@H](NC(=O)[C@H]2CC[C@H](c3cnc(N4C5CCC4CN(c4cc(-c6ccccc6O)nnc4N)C5)nc3)CC2)C(C)(C)C)cc1 [I-438]
Result :: < 100 nM

Query :: Determine from records and report DC50 for Cc1ncsc1-c1ccc(CNC(=O)[C@@H]2C[C@@H](OC(=O)[C@H](C)N)CN2C(=O)[C@@H](NC(=O)[C@H]2CC[C@H](c3cnc(N4C5CCC4CN(c4cc(-c6ccccc6O)nnc4N)C5)nc3)CC2)C(C)(C)C)cc1 [I-409]
Result :: < 100 nM

Query :: Report DC50, nothing else, for this molecule: Cc1ncsc1-c1ccc(CNC(=O)[C@@H]2C[C@@H](O)CN2C(=O)[C@@H](NC(=O)C[C@H]2CC[C@@H](c3nccc(N4C5CCC4CN(c4cc(-c6ccccc6O)nnc4N)C5)n3)CC2)C(C)(C)C)cc1 [I-365]
Result :: < 100 nM

Query :: Note DC50 for the molecule shown: Cc1ncsc1-c1ccc(CNC(=O)[C@@H]2C[C@@H](O)CN2C(=O)[C@@H](NC(=O)CN2CCC(n3cc(-c4cc(-c5ccccc5O)nnc4N)cn3)CC2)C(C)(C)C)cc1 [I-457]
Result :: 100 to 500 nM

Query :: Give the value of DC50 reported for the following: Nc1nnc(-c2ccccc2O)cc1-c1cnn(C2CCN(C3CCC(CNc4cccc5c4C(=O)N(C4CCC(=O)NC4=O)C5=O)CC3)CC2)c1 (stereo not shown) [I-324]
Result :: < 100 nM

----------
# Target System: SMARCA2 (Homo sapiens, UniProt P51531)
# Sequence (P51531 whole entry): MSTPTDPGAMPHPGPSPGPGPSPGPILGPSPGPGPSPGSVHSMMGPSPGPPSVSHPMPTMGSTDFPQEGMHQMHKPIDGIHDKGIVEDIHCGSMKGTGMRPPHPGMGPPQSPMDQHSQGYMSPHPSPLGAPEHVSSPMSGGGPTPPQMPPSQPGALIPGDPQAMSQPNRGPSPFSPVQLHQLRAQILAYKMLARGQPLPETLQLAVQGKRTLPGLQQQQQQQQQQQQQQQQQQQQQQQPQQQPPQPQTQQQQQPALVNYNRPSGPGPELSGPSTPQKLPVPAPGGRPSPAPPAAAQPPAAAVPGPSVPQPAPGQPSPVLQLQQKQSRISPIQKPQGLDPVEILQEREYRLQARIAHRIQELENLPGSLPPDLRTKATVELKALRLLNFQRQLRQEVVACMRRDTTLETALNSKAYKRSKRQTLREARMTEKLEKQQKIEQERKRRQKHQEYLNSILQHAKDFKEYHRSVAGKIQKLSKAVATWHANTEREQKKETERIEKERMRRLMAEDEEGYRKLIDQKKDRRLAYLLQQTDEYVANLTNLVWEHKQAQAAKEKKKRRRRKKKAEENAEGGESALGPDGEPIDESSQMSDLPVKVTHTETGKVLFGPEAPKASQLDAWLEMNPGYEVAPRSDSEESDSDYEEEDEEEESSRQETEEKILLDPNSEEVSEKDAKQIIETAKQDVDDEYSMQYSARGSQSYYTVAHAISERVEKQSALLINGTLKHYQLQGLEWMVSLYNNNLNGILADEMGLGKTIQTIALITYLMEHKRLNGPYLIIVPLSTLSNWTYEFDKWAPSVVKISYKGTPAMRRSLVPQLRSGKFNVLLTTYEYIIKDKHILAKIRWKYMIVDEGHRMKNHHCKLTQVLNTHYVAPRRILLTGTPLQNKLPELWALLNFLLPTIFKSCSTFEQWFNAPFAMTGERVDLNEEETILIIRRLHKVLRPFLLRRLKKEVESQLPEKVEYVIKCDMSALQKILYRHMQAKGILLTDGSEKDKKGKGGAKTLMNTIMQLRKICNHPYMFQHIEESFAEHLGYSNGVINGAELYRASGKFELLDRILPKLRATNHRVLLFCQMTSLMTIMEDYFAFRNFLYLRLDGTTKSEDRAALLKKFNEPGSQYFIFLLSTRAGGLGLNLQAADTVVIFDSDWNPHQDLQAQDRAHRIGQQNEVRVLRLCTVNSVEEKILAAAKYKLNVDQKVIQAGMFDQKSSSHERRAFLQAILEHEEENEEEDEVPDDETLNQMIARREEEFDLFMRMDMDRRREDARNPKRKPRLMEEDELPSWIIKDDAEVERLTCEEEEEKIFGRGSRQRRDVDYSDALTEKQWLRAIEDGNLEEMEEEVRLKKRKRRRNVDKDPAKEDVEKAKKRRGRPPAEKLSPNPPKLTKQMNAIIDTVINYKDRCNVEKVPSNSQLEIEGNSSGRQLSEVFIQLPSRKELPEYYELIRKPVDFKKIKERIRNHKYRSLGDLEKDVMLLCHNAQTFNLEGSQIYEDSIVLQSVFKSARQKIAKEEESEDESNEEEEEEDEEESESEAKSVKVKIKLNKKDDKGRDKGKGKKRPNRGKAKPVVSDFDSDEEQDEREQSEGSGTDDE
# Method Summary: SMARCA2 Western blot MV4-11 degradation
# Format: cell-based
# Condition Summary: MV4-11 cells
Property Label: SMARCA2 WB MV411 degradation 24 h: Average Dmax %

- Cc1ncsc1-c1ccc(CNC(=O)[C@@H]2C[C@@H](O)CN2C(=O)[C@@H](NC(=O)[C@H]2CC3(C2)C[C@H](N2CCC(c4cnc(N5C6CCC5CN(c5cc(-c7ccccc7O)nnc5N)C6)nc4)CC2)C3)C(C)(C)C)cc1 (stereo partly shown): A (A (>90% degradation))
- Cc1ncsc1-c1ccc(CNC(=O)[C@@H]2C[C@@H](O)CN2C(=O)[C@@H](NC(=O)[C@H]2C[C@@]3(C2)C[C@H](c2ccc(CN4CCC(Cn5cc(-c6cc(-c7ccccc7O)nnc6N)cn5)CC4)cc2)C3)C(C)(C)C)cc1 (stereo partly shown): A (A (>90% degradation))

----------
# reported Dmax; entries follow
# Target System: SMARCA2 (Homo sapiens)
# Method Summary: MSD SMARCA2 degradation in NCI-H1299 cell line (24 h)
# Assay type: cell-based
# Set-up: HC: NCI-H1299 cells treated with DMSO; host or cells: NCI-H1299
# Condition Summary: NCI-H1299, NCI-H1299 cells

Guide cases for Dmax, answers given:
* Cn1c(=O)n(C2CCC(=O)NC2=O)c2ccc(CCCOCCCOCCN3CCN(Cc4ccc(-c5cc(-c6ccccc6O)nnc5N)cc4)CC3)cc21 (stereo not drawn) | 50 to 70%
* Cn1c(=O)n(C2CCC(=O)NC2=O)c2ccc(CNCCCCc3cn(Cc4cccc(N5C[C@H]6C[C@@H]5CN6/C=C/C(=O)c5ccccc5O)n4)nn3)cc21 (stereo partly drawn) | < 50%
* Cn1c(=O)n(C2CCC(=O)NC2=O)c2cccc(CCCN3CCCC(c4cnc(N5C6CCC5CN(c5cc(-c7ccccc7O)nnc5N)C6)nc4)C3)c21 (stereo not drawn) | > 90%
* CN1C(=O)CCC(n2c(=O)n(C)c3cc(CCCOCCCCN4CCN(Cc5ccc(-c6cc(-c7ccccc7O)nnc6N)cc5)CC4)ccc32)C1=O (stereo not drawn) | < 50%
* Cn1c(=O)n(C2CCC(=O)NC2=O)c2cccc(CN3CCCC(n4cc(-c5cc(-c6ccccc6O)nnc5N)cn4)C3)c21 (stereo not drawn) | 50 to 70%

Next molecule, Dmax to be filled in.
Query :: Query Dmax for Cn1c(=O)n(C2CCC(=O)NC2=O)c2cccc(CCCOC3CCN(Cc4ccc(N5CCN(c6cc(-c7ccccc7O)nnc6N)CC5)cc4)CC3)c21 (stereo not drawn)
Result :: 70 to 90%

----------
# Target System: UniProtKB P51531
# Method Summary: MSD SMARCA2 degradation in A549 cell line
# Assay type: cell-based
# Condition Summary: A549 cells, 24 h, read-out: SMARCA2 MSD A549 degradation 24 h: Average external-Abs DC50
# Protocol: Cells were seeded into 96-well plates (A549 cells: 2×10^4 cells/well/100 ul media) abd incubated overnight. The next day, 200 nl compound were added into the intermediate plate with Echo (Labcyte 550) from source plate containing a 3-fold serial dilution from top concentration of 1 mM. […] The MSD plate was washed three times with 150 ul/well of TBST and 150 ul/well of 2×MSD reading buffer diluted from 4× (MSD, R92TC-2) with water was added. Lastly, the MSD instrument was read. […]
Property Label: DC50

• Cc1ncsc1-c1ccc(CNC(=O)[C@@H]2C[C@@H](O)CN2C(=O)[C@@H](NC(=O)[C@H]2C[C@@H](N3CCC(n4cc(-c5cc(-c6ccccc6O)nnc5N)cn4)CC3)C2)C(C)(C)C)cc1 = 501 to 1000 nM
• Cc1ncsc1-c1ccc(CNC(=O)[C@@H]2C[C@@H](O)CN2C(=O)[C@@H](NC(=O)CNCc2cccc(C#Cc3cc(NC(=O)Nc4cc(F)ncc4CO)ccn3)c2)C(C)(C)C)cc1 = > 1000 nM
• Cc1ncsc1-c1ccc(CNC(=O)[C@@H]2C[C@@H](O)CN2C(=O)[C@@H](NC(=O)CCN(C)CC#Cc2cnc(N3C4CCC3CN(c3cc(-c5ccccc5O)nnc3N)C4)nc2)C(C)(C)C)cc1 = 501 to 1000 nM
• Cc1ncsc1-c1ccc(CNC(=O)[C@@H]2C[C@@H](O)CN2C(=O)[C@@H](NC(=O)N2CCC(N3CCC(c4cnc(N5C6CCC5CN(c5cc(-c7ccccc7O)nnc5N)C6)nc4)CC3)CC2)C(C)(C)C)cc1 = > 1000 nM
• Cc1ncsc1-c1ccc(CNC(=O)[C@@H]2C[C@@H](O)CN2C(=O)[C@@H](NC(=O)CCCCN2CCC[C@H](Cn3cc(-c4cc(-c5ccccc5O)nnc4N)cn3)C2)C(C)(C)C)cc1 = > 1000 nM

Query :: Tell me DC50 reported for Cc1ncsc1-c1ccc(CNC(=O)[C@@H]2C[C@@H](O)CN2C(=O)[C@@H](NC(=O)CC2CCC(N3CCC(c4cnc(N5C6CCC5CN(c5cc(-c7ccccc7O)nnc5N)C6)nc4)CC3)CC2)C(C)(C)C)cc1 (stereo partly shown)
Result :: 100 to 500 nM

Query :: Provide measured DC50 value, entry: Cc1ncsc1-c1ccc(CNC(=O)[C@@H]2C[C@@H](O)CN2C(=O)[C@@H](NC(=O)CN(C)Cc2ccc(N3CCN(c4cc(-c5ccccc5O)nnc4N)CC3)cc2)C(C)(C)C)cc1
Result :: 501 to 1000 nM

Query :: Quick one: give measured DC50 for Cn1c(=O)n(C2CCC(=O)NC2=O)c2ccc([C@H]3CC[C@@H](N4CCC(c5nccc(N6C7CCC6CN(c6cc(-c8ccccc8O)nnc6N)C7)n5)CC4)CC3)cc21 (stereo partly shown)
Result :: < 100 nM

Query :: Retrieve DC50 measured for Cc1ncsc1-c1ccc(CNC(=O)[C@@H]2C[C@@H](O)CN2C(=O)[C@@H](NC(=O)c2ccc(C#CCCCN3CCC(Cn4cc(-c5cc(-c6ccccc6O)nnc5N)cn4)CC3)cc2)C(C)(C)C)cc1 and print it.
Result :: 100 to 500 nM

Query :: Report DC50, nothing else, for this molecule: Cc1ncsc1-c1ccc(CNC(=O)[C@@H]2C[C@@H](O)CN2C(=O)[C@@H](NC(=O)CCN2CCC[C@H](Cn3cc(-c4cc(-c5ccccc5O)nnc4N)cn3)C2)C(C)(C)C)cc1
Result :: > 1000 nM

Query :: Consider the molecule CN(Cc1ccc(C#Cc2cc(NC(=O)Nc3cc(F)ncc3CO)ccn2)cc1)C1CCN(Cc2cccc3c2n(C)c(=O)n3C2CCC(=O)NC2=O)CC1 (stereo not shown) and give its recorded DC50.
Result :: > 1000 nM

Query :: Give me measured DC50, please, for this molecule: Cn1c(=O)n(C2CCC(=O)NC2=O)c2cccc(CN3CCC(OC4CCN(Cc5cccc(C#Cc6cc(NC(=O)Nc7cc(F)ncc7CO)ccn6)c5)CC4)CC3)c21 (stereo not shown)
Result :: > 1000 nM

Query :: Query DC50 for Cc1ncsc1-c1ccc(C2(NC(=O)[C@@H]3C[C@@H](O)CN3C(=O)[C@@H](NC(=O)[C@H]3CC[C@H](c4cnc(N5C6CCC5CN(c5cc(-c7ccccc7O)nnc5N)C6)nc4)CC3)C(C)(C)C)CC2)cc1
Result :: < 100 nM

Query :: Note down DC50 recorded for Cc1ncsc1-c1ccc(CNC(=O)[C@@H]2C[C@@H](O)CN2C(=O)C(NC(=O)C2(F)CC2)C2CCC(N(C)CCCCCc3cnc(N4C5CCC4CN(c4cc(-c6ccccc6O)nnc4N)C5)nc3)CC2)cc1 (stereo partly shown)
Result :: > 1000 nM

Query :: Give DC50 for the following molecule: Cc1ncsc1-c1ccc(CNC(=O)[C@@H]2C[C@@H](O)CN2C(=O)[C@@H](NC(=O)COCCCc2cnc(N3C4CCC3CN(c3cc(-c5ccccc5O)nnc3N)C4)nc2)C(C)(C)C)cc1
Result :: 100 to 500 nM
